Target: T1, full-length beta-Catenin (Uniprot ID P35222) (Homo sapiens (Human), UniProt P35222 2-781)
T1 construct: The FP assay uses 10 nM 'full-length beta-Catenin (Uniprot ID P35222)'; also called bCat; B-Catenin
T1 sequence: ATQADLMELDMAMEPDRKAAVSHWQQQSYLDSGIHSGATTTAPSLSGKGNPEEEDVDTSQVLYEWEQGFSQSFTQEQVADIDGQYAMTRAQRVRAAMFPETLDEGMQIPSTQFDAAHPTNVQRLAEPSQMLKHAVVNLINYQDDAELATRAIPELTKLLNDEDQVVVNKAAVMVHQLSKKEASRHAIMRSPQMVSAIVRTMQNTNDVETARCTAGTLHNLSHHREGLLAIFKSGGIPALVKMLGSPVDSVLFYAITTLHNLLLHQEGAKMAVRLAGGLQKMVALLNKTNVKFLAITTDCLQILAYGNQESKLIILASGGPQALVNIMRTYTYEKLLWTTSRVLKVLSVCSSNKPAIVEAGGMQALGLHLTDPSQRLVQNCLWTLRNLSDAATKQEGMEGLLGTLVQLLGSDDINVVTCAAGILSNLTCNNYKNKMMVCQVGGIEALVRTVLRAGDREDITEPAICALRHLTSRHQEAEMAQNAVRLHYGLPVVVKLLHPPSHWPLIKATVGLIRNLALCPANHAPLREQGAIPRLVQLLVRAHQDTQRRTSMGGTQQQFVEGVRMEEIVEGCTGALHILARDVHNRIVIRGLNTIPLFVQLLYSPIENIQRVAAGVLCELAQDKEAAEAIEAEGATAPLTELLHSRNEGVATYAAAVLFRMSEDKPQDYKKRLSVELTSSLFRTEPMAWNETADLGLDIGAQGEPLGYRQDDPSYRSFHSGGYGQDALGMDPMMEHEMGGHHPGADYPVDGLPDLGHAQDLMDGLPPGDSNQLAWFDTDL
Test: fluorescence polarization competition; 10 nM full-length beta-catenin, 10 nM 5FAM-TCF4(10-53) probe
Starred links: 1 amine or outer side, 2 acyl side, 3 side chain; linkers in the order of their positions; H or OH if unused. Positions of bridges follow the written chain, without caps; N, C: chain ends. Non-standard residues stand in square brackets, D forms with d. Primed or numbered codes have the meaning given here. *: point of attachment. B5(16) = 2-amino-2-(pent-4-en-1-yl)hept-6-enoic acid = 2,2-bis(4-pentenyl)glycine (stitching residue), C=CCCCC(CCCC=C)(N[*:1])C(=O)[*:2]; PyrS2 = (S)-3-amino-1-((pent-4-en-1-yloxy)carbonyl)pyrrolidine-3-carboxylic acid, C=CCCCOC(=O)N1CC[C@@](N[*:1])(C(=O)[*:2])C1; Bta = N[C@@H](Cc1csc2ccccc12)C(=O)O; αAllylPro = C=CC[C@@]1(C(=O)O)CCCN1; iPr = CC(C)*
PARAMETER_MEASURED: IC50 (nM)
Give bare numbers, in nM.

Consider the binder Ac-[αAllylPro]NY[B5(16)]DQK(iPr)AFL[PyrS2]F[Bta]Q-NH2 (staple 1-4, 4-11, Stapled peptide; also called Ac-PL3-Asn-Tyr-B5-Asp-Gln-iPrLys-Ala-Phe-Leu-PyrS2-Phe-BztA-Gln-NH2) [I-1647] and give its recorded IC50. 2350
